Assay System: Escherichia coli β-glucuronidase (EcGUS) (Escherichia coli, UniProt P05804)
Sequence (P05804 whole entry): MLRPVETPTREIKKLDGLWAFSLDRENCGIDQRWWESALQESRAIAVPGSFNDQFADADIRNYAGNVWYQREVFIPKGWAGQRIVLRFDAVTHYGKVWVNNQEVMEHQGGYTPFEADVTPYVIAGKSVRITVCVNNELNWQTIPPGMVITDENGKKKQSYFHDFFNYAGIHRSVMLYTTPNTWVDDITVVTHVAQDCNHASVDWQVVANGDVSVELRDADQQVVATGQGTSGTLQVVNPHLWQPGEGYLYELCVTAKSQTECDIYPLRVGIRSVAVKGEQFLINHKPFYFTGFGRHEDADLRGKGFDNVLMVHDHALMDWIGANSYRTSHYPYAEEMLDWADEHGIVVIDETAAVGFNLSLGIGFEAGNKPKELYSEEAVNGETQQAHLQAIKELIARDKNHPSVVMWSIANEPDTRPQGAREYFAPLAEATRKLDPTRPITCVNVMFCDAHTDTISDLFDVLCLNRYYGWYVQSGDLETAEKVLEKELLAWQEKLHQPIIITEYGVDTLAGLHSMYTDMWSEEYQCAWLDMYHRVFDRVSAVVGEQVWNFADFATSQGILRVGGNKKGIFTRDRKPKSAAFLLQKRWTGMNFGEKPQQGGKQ
Parameter Measured: pKi
Answers are plain numbers, as −log10 of the molar value.

So, O=C(O)[C@@H](O)[C@H]1OC(=O)[C@H](O)[C@H]1O [D-Saccharic acid 1,4-lactone, D-saccharic acid-1,4-lactone, reference compound] ? Its pKi was 4.51

====

Assay System: Escherichia coli β-glucuronidase (EcGUS) (Escherichia coli)
Construct: inferred from the pET28a vector and Ni-NTA purification; made in house; host or cells: E. coli BL21 (DE3)
Experiment: EcGUS-mediated PNPG hydrolysis inhibition assay (screening at 10 µM and IC50)
Format: biochemical
Details: 10 µM compound, PNPG 250 µM, EcGUS 2 µg/mL, PBS pH 7.4, 37 °C, 30 min; read-out: Inhibition rate at 10 μM
Provide the recorded inhibition at 10 µM for the entries that follow.

Use these answered entries as a reference point.
>>> result("N#C/N=C1\\SCCN1C(=O)c1ccc(-c2ccc(F)cc2F)o1 [Compound 6]")
"43.9%"
>>> result("N#C/N=C1\\SCCN1C(=O)c1ccc(-c2cccc(Cl)c2)o1 [Compound 2]")
"95.2%"

Now, please, on to the next compound.
So, N#C/N=C1\SCCN1C(=O)c1ccc(-c2c(F)cccc2F)o1 [Compound 7] ? Its inhibition at 10 µM was 64.1%
